Target: Serine/threonine-protein kinase 3 (Homo sapiens)
Sequence (Q13188 whole entry): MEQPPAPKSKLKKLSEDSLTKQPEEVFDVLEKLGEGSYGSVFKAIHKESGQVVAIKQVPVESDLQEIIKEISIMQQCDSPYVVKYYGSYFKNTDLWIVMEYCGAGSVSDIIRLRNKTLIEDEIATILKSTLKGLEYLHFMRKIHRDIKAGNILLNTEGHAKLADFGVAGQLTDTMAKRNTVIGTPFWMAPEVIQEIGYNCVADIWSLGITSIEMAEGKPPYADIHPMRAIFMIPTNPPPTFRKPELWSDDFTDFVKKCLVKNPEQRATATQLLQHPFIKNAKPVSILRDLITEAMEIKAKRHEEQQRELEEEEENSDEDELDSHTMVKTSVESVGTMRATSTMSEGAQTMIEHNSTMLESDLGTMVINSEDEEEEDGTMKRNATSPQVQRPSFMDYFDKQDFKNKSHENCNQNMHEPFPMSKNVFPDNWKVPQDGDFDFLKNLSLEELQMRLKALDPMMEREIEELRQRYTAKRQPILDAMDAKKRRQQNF
endpoint_name: IC50 (nM)
Give the quantity in nM, number only.

Data request, read-out IC50, for "COc1ccc2c(c1)C(=O)N(c1nc(C(=O)Nc3cnccc3N3CCNCC3)cs1)C2"
2100

----------
experiment: Plasma concentration in rat at 10 mg/kg, po measured at 24 hrs; assay type: ADME, organism-based; set-up: dose 10 mg/kg, route oral
endpoint_name: concentration at 24 h
Express your answer as a number followed by its unit.

Data request, read-out concentration at 24 h, for "COc1ccc2c(c1)C(=O)N(c1nc(C(=O)Nc3cnccc3N3CCNCC3)cs1)C2"
6.29 ng/mL

----------
target: Interleukin-1 receptor-associated kinase 4 (Homo sapiens, UniProt Q9NWZ3)
Sequence (Q9NWZ3 whole entry): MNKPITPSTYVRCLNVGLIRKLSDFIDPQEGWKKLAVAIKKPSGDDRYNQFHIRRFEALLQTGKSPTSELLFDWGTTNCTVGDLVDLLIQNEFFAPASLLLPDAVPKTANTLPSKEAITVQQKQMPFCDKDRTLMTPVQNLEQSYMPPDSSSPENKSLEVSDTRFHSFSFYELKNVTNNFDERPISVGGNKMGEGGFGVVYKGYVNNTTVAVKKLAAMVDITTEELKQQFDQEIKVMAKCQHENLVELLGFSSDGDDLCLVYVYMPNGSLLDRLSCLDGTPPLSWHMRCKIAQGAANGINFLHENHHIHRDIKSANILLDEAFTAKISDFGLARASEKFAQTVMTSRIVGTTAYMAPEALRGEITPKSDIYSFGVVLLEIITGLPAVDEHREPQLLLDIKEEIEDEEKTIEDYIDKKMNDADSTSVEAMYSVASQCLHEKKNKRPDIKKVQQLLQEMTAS
endpoint_name: pIC50
When answering, recall that pIC50 equals minus log10 of the concentration in mol/L, and write that number alone.

Data request, read-out pIC50, for "COc1ccc2c(c1)C(=O)N(c1nc(C(=O)Nc3cnccc3N3CCNCC3)cs1)C2"
5.96

----------
molecular target: Cytochrome P450 2C9 (Homo sapiens, UniProt P11712); experiment: Time-dependent inhibition of CYP2C9 in human liver microsomes using tolbutamide as substrate incubated for 30 mins prior to substrate addition measured after 30 mins by LC-MS/MS analysis; format: ADME, Microsome
Sequence (P11712 whole entry): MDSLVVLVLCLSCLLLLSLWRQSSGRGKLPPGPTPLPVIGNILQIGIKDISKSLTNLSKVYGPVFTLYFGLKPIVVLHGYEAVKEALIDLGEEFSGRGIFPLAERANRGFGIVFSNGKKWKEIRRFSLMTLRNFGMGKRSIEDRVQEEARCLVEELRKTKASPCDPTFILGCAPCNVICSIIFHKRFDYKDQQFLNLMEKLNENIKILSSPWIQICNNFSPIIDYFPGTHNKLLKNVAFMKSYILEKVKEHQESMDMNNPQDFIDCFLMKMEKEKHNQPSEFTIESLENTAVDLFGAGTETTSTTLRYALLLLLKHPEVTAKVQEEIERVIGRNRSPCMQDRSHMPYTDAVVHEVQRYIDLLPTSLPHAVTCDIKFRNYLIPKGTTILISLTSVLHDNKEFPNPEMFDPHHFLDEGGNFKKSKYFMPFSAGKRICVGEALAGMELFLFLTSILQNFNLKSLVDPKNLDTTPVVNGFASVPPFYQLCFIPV
endpoint_name: IC50

Under Cytochrome P450 2C9 (Homo sapiens, UniProt P11712): IC50 value of "COc1ccc2c(c1)C(=O)N(c1nc(C(=O)Nc3cnccc3N3CCNCC3)cs1)C2" ?
> 30 µM

----------
target: Casein kinase I isoform delta (Homo sapiens); experiment: Inhibition of human CSNK1D
Sequence (P48730 whole entry, canonical isoform): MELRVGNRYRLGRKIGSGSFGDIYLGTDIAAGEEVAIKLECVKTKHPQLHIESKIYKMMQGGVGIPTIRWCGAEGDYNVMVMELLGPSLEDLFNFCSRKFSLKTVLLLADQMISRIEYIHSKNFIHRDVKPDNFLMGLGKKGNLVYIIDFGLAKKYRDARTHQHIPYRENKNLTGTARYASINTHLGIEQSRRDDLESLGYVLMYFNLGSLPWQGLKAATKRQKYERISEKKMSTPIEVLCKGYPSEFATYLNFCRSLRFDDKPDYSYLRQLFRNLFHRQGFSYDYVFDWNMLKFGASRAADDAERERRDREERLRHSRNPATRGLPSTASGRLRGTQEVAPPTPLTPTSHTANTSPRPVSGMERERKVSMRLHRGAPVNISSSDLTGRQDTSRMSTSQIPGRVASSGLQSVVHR
pIC50: −log10 of the molar value.
endpoint_name: pIC50

Data request, read-out pIC50, for "COc1ccc2c(c1)C(=O)N(c1nc(C(=O)Nc3cnccc3N3CCNCC3)cs1)C2"
< 4.52
